Each entry below lists one item and its recorded IC50, PAR-2 calcium flux assay (trypsin EC80) value.
- TEST SYSTEM: T1, human PAR-2 (human, UniProt P55085 26-397)
- T1 sequence: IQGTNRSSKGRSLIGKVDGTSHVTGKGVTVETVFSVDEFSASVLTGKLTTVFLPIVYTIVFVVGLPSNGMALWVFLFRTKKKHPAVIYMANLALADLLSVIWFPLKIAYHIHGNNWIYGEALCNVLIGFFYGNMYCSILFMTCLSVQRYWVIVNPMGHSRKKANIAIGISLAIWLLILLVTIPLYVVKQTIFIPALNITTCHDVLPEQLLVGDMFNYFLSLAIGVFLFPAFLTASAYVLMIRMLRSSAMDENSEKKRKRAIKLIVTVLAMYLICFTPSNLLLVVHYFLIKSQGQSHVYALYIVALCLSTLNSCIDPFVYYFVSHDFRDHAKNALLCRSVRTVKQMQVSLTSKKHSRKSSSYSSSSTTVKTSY
- PROTOCOL TEXT: cell-based or functional assay
A number alone suffices; assume µM.

Ab309 (antibody, human IgG4, V domains shown) VH: QVQLKESGPGLVQPSQTLSLTCTVSGFSLNSYGVIWARQPPGKGLDWMGVIWGNGNTYYNSDLKSRLSISRDTSKSQVFLKMNNLQAEDTALYFCARWRGYKDYPFDYWGQGVMVTVSS VL: DIQMTQSPSFLSASVGDRVTFNCKASQNIYKYLDWYQQKLGEAPKLLIYNTNSLHTGIPSRFSGSGFGTDFTLTISSLQPEDVATYFCLQHNSGWTFGGGTKLELR = 0.0067
Ab39 (antibody, human IgG4, V domains shown, also called Anti-PAR-2 antibody # 39) VH: EVQLVESGGGLVQPKGSLKLSCAASGFTFNTYAMHWVRQAPGKGLEWVARIGSKSSYYATYYADSVKDRFTISRADSQSMLYLQMNNLKTEDTAIYYCVREDYYGCSFDYWGQGTTLTVSS VL: QIVLSQSPVILSTSPGEKVTMTCRANSRVIYVHWYQQKPGSSPKPWIFATSNLASGVPSRFSGSGSGTSYSLTISRVETEDAATYYCQHCGNNPPTFGSGTKLEIK = 0.029
Ab77 (antibody, human IgG4, V domains shown, also called Anti-PAR-2 antibody # 77) VH: EVQLVGSGGGLVQPKGSLKLSCAASGFTFNTYAMHWVRQAPGKGLEWVARIGSKSSYYATYYADSVKDRFTISRDDSQSMLYLQMNNLKTEDTAMYYCVREDYYGSSYDYWGQGTTLTVSS VL: DIVMTQSHKFMSISVGDRVSITCKASQDVGTAVAWHQQKAGQSPKLLIYWASARHTGVPDRFTGSGSGTDFTLTISNVQSEDLTDFFCQQYSNYPFTFGSGTKLEIK = 0.169

Please look at the following binder next.
QUERY: Provide measured IC50, PAR-2 calcium flux assay (trypsin EC80) value, entry: Ab20 (antibody, human IgG4, V domains shown, also called Anti-PAR-2 antibody # 20) VH: EVQLVESGGGLVQPKGSLKLSCAASGFTFNIYAMHWVRQAPGKGLEWVARIGSKSSNYATNYADSVKDRFTISRDDSQSMLCLQMNNLKTEDTAMYYCVREDYYGNSFDSWGQGTTLAVSS VL: QIVLSQSPAILSASPGEKVTMTCRTSSSVIYIHWYQQKSGSSPKPWIYATSNLASGVPTRFSGSGSGTSYSLTISRVEAEDAATYYCHHWRSNPPTFGGGTKLEIK
RESULT: 0.0732
